Target: T1, human melanocortin-4 receptor (recombinant hMC4-R) (human, UniProt P32245 1-332)
T1 construct: whole, on cells; Ki assays used membrane homogenates of HEK-293 cells expressing recombinant hMC4-R; cAMP assays used HEK-293 T-REx cells induced with 0.1 ng/mL doxycycline; also called human MC4-R; MC4 receptor
T1 sequence (P32245 whole entry): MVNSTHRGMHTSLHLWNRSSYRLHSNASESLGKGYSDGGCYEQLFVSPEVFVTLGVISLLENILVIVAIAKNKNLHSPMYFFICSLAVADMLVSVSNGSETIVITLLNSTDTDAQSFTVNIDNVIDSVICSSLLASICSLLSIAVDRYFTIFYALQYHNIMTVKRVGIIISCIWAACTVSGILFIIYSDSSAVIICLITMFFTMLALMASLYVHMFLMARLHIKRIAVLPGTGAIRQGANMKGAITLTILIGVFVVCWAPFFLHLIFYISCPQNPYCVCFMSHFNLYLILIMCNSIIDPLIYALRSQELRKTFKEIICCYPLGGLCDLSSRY
Assay: competition with labelled NDP-α-MSH ([I125] or Eu), hMC4-R HEK-293 membranes
Method: After incubation for 60 minutes at 37° C., the assay mixture was filtered and the membranes washed three times with ice-cold buffer. Filters were dried and counted in a gamma counter for bound radioactivity. […] Maximal specific binding (100%) was defined as the difference in radioactivity (cpm) bound to cell membranes in the absence and presence of 1 μM NDP-α-MSH. […] Ki values for test peptides of the present invention were determined using Graph-Pad Prism® curve-fitting software. […]
Numbered stars: 1 amine (or outer) side, 2 acyl side, 3 side chain; on linkers, the order of the positions; unused ones are H or OH. Bridge positions count the residues as written; N and C are the ends. Square brackets hold non-standard residues; d marks the D form. Pro(trans-4-NH2) = O=C([C@@H]1C[C@@H](N[*:3])CN1[*:1])[*:2]; Orn = NCCC[C@H](N)C(=O)O
Measured Ki values are reported for all entries that follow.
The answer is to be given in nM; state only the numeric part.

Would you please look over these solved cases?
[[record]]
binder = "Ac-RE[Pro(trans-4-NH2)][dF]RW[Orn]-NH2 (lactam 2-7) [Peptide No. 32: Ac-Arg-cyclo(Glu-Pro(4R-NH2)-D-Phe-Arg-Trp-Orn)-NH2]"
units_symbol = "nM"
experimental_result = 6

[[record]]
binder = "Ac-RDN[dF]RWK-OH (lactam 2-7, also called Peptide Structure (Asp...Lys) in the row of No. 20) [Asp...Lys analog of peptide No. 20: Ac-Arg-cyclo(Asp-Asn-D-Phe-Arg-Trp-Lys)-OH]"
units_symbol = "nM"
experimental_result = 100

[[record]]
binder = "Ac-REK[dF]RW[Orn]-NH2 (lactam 2-7) [Peptide No. 16: Ac-Arg-cyclo(Glu-Lys-D-Phe-Arg-Trp-Orn)-NH2]"
units_symbol = "nM"
experimental_result = 15


Consider now this further binder.
Which Ki is reported for this binder? Ac-REH[dF]RW[Orn]-NH2 (lactam 2-7) [Peptide No. 4: Ac-Arg-cyclo(Glu-His-D-Phe-Arg-Trp-Orn)-NH2]
1

These data points were gathered from patent US20120077957A1.
